- Test Target: Estrogen receptor (Homo sapiens)
- Method: qHTS assay to identify small molecule antagonists of the estrogen receptor alpha (ER-alpha) signaling pathway using the BG1 cell line in the presence of 0.1 nM 17-beta-estradiol (AID 1259244); also: nearly all actives have a fitted effect of over 50% in size
- Condition Notes: VM7Luc4E2 (BG1) ERE-luciferase, antagonist mode, 0.1 nM E2, 22 h; series mostly up to 92.4 µM
- Text: National Center for Advancing Translational Sciences [NCATS] NIH Chemical Genomics Center [NCGC] U.S. Environmental Protection Agency [EPA] National Institutes of Environmental Health Sciences [NIEHS] National Toxicology Program [NTP] U.S. Food and Drug Administration [FDA] Estrogen receptor (ER), a member of the nuclear hormone receptor plays an important role in development, metabolic homeostasis and reproduction. […]
Records with an inconclusive call do not appear. Calls of active or inactive are those of the source. Calls follow the shape of the dose curve; as a rule, active = well fitted inhibition curve with a large enough effect in the repeat runs; inconclusive = weak or mixed curves; inactive = no such curve, though single readings can be large or run the other way.
Labels: YES = active, NO = inactive

* CCn1nc(C)c2c1C(=O)NCC(c1ccc(O)cc1)=N2 | NO
* CCCCOC(=O)CCS | YES
* COc1ccc(C(=O)c2cccc(O)c2)c(OC)c1 | NO
* CC(Cl)C(Cl)Cl (stereo not given) | NO
* CNC(=O)N(c1ccccc1)c1ccccc1 | NO
* CCCCCCCCCCCC[N+](C)(C)CCCS(=O)(=O)[O-] | NO
* Cc1ccc(S)cc1 | NO
* CCCOc1ccc(S(=O)(=O)N2CCN(CC)CC2)cc1-c1nc2c(CC)n(Cc3ccccn3)nc2c(=O)[nH]1 | NO
* CCC1(C)CC(=O)NC1=O (stereo not given) | NO
* Oc1ccc(Nc2ccccc2)cc1 | NO
* CCCCC(CC)C(=O)OCCOCCOCCOCCOC(=O)C(CC)CCCC (stereo not given) | NO
* OCC1CC=CCC1 (stereo not given) | NO
* Cc1nccn1-c1ccc(Sc2cccc(C3(C(N)=O)CCOCC3)c2)cc1 | YES
* CCc1nn(CCCN2CCN(c3cccc(Cl)c3)CC2)c(=O)n1CCOc1ccccc1 | YES
* CCc1c2c(nc3ccc(OC(=O)N4CCC(N5CCCCC5)CC4)cc13)-c1cc3c(c(=O)n1C2)COC(=O)[C@]3(O)CC | YES

---

- Test Target: Nuclear receptor subfamily 1 group I member 3 (Homo sapiens) (UniProt Q14994)
- Sequence (Q14994 whole entry, looked up): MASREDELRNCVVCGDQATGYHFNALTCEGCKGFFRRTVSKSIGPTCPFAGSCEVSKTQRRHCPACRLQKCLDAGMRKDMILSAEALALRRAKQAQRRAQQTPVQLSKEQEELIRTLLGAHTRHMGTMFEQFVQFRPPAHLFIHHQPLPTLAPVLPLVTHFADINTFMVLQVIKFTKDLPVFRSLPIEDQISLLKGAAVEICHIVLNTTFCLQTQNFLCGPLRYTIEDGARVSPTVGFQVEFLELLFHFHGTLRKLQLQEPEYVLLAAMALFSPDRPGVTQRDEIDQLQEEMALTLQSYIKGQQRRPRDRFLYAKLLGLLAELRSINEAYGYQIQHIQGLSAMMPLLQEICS
- Method: qHTS assay to identify small molecule agonists of the constitutive androstane receptor (CAR) signaling pathway (AID 1224839); also: nearly all actives have a fitted effect of over 15% in size;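 as to activation: HepG2 cells stably carrying human CAR and a CYP2B6 luciferase reporter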
- Condition Notes: HepG2 hCAR CYP2B6-luciferase, agonist mode, 24 h; series mostly up to 92.4 µM
Records with an inconclusive call do not appear. Activity calls are given as the source filed them. Calls follow the shape of the dose curve; as a rule, active = well fitted activation curve with a large enough effect in the repeat runs; inconclusive = weak or mixed curves; inactive = no such curve, though single readings can be large or run the other way.
Labels: 1 = active, 0 = inactive

• CCCC1C(CC)=CC(CC)=CN1c1ccccc1 (configuration not stated) = 1
• O=Cc1c(Cl)cccc1Cl = 0
• CO[C@H]1C=CO[C@@]2(C)Oc3c(C)c(O)c4c(O)c(c5c(c4c3C2=O)=NC2(CCN(CC(C)C)CC2)N=5)NC(=O)/C(C)=C\C=C/[C@H](C)[C@H](O)[C@@H](C)[C@@H](O)[C@@H](C)[C@H](OC(C)=O)[C@@H]1C = 0
• O=C(CCCCCCC(=O)Nc1ccccc1)NO = 0
• Fc1c(F)c(F)c(Br)c(F)c1F = 0
• C[C@]12CCC(=O)C=C1C=C[C@@H]1[C@@H]2CC[C@@]2(C)[C@H]1CC[C@@]21CCC(=O)O1 = 0
• CCCCN(CCCC)CCCOC(=O)c1ccc(N)cc1 = 1
• O=C(CCCN1CCC(O)(c2ccc(Br)cc2)CC1)c1ccc(F)cc1 = 0
• CN(C)C(=O)Nc1ccc(Oc2ccc(Cl)cc2)cc1 = 1
• CC(C)C(=O)O = 0
• Cc1occc1C(=O)Nc1ccc(C(=O)N2CCC(F)(F)/C(=C\C(=O)N3CCC(N4CCCCC4)CC3)c3ccccc32)cc1 = 0
• CCCCCCCCSCCO = 0

Cited source: PubChem BioAssay (Tox21)
